Each entry below lists one item and its recorded growth inhibition value.
# ASSAY: NCI Yeast Anticancer Drug Screen. Data for the bub3 strain (AID 167)
# COND: S. cerevisiae bub3 mutant strain, at 50.0 µM, stronger effect = higher value
The panel holds about 79,000 compounds, 15% with a hit somewhere; the sample as a whole holds those more often.

{"COMPOUND": "CCOC1OCCCC1C(OCC)C(C)C (centres undefined)", "growth inhibition / %": -0.7}
{"COMPOUND": "CS(=O)(=O)OC1C(O)C(O)OC(CO)C1O (centres undefined)", "growth inhibition / %": 5.75}
{"COMPOUND": "Cc1cccc(C=NC23CC4CC(CC(C4)C2)C3)c1", "growth inhibition / %": -44.9}
{"COMPOUND": "CCOc1c(Cl)cc(Cl)cc1C(c1ccc(Cl)cc1S(=O)(=O)O)c1cc(Cl)cc(Cl)c1OCC", "growth inhibition / %": 99}
{"COMPOUND": "CC(C)=CCC1=C(OC2OC(CO)C(O)C(O)C2O)C(=O)c2ccccc2C1=O (centres undefined)", "growth inhibition / %": 6.55}
{"COMPOUND": "NC(=O)c1cn(Cc2ccccc2)c(=O)n1Cc1ccccc1", "growth inhibition / %": 23.8}
{"COMPOUND": "O=C1CC[C@H](NC(=O)Cc2ccccc2)C(=O)N1", "growth inhibition / %": -11.9}
{"COMPOUND": "CC/C(C)=C1/CC(C)(C)N=C1C", "growth inhibition / %": -12.2}
{"COMPOUND": "Cc1ccc(C(=O)Oc2ccccc2)cc1N=NN(C)C", "growth inhibition / %": -29.8}
{"COMPOUND": "CCCCOC(=O)CNC(=O)OC(C)(C)C", "growth inhibition / %": -3.25}
{"COMPOUND": "C/C=C/C1N(C)CCCN1C", "growth inhibition / %": -25.9}
{"COMPOUND": "CCN(Cc1cc(Nc2ccnc3cc(Cl)ccc23)ccc1O)C(=O)N1CCN(C)CC1", "growth inhibition / %": -7.55}
{"COMPOUND": "CC(=O)c1cc(Cl)ccc1Cl", "growth inhibition / %": -3.05}
{"COMPOUND": "CC(C)CC(C)OB(OC(C)CC(C)C)OC(C)CC(C)C (centres undefined)", "growth inhibition / %": 0.7}
{"COMPOUND": "CC(CC(C(=O)Nc1ccccc1)(c1ccccc1)c1ccccc1)N(C)C (centres undefined)", "growth inhibition / %": -5.1}
{"COMPOUND": "Cc1nc(N)nc(-c2ccccc2)c1N=Nc1ccccc1Br", "growth inhibition / %": -0.85}
{"COMPOUND": "CC(=O)c1cccc(NC(=O)Oc2ccc(Cl)cc2Cc2ccccc2)c1", "growth inhibition / %": 99.4}
{"COMPOUND": "CCCCCc1c2nc(c(CCCCC)c3ccc([nH]3)c(CCCCC)c3ccc([nH]3)c(CCCCC)c3nc1C=C3)C=C2", "growth inhibition / %": -10.5}
{"COMPOUND": "CC(=O)OCCOCNC(=S)N/N=C/c1ccc([N+](=O)[O-])s1", "growth inhibition / %": 2.7}
{"COMPOUND": "CC(C)(C)CC(C)(C)[N+](=O)[O-]", "growth inhibition / %": -3.25}
{"COMPOUND": "C=CC(=NC(C)(C)C)Nc1ccc(Cl)cc1", "growth inhibition / %": -19.2}
{"COMPOUND": "O=c1cc(NCc2c(Cl)cccc2[N+](=O)[O-])[nH]c(=O)[nH]1", "growth inhibition / %": 15}
{"COMPOUND": "C[C@@H]1C[C@@H]2C(=O)N(c3ccccc3)C(=O)[C@@H]2c2[nH]c3ccc(Br)cc3c21", "growth inhibition / %": -7.95}
{"COMPOUND": "COc1ccc(C(=O)c2ccccc2)c(N)c1", "growth inhibition / %": -17.9}
